B1: RAD51 (parent)
chain: APKKELINIKGISEAKADKILAEA

Variants of: B1
Test Protocol: protein stability index of a GFP-peptide fusion (GPS, HEK-293T) (PSI 1-6); higher = more stable;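 note: lentivirally expressed fusions sorted by FACS into six bins by GFP to DsRed ratio, PSI derived from sequencing read proportions per bin multiplied by bin number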
Experimental Context: c terminus: a fixed tail appended
Give protein stability index for every item shown.

protein stability index for `L6R` is 4.61

# protein stability index of `L21T` = 5.25

Lab note: `K16R` gave protein stability index of 4.53

variant `E14W` , protein stability index observed: 3.89

Lab note: measured protein stability index of `D18I` was 3.62

Measured protein stability index, `E23S` : 3.79

# variant `E14A` ; its protein stability index = 4.4

Sure, the documented protein stability index for `I20G` is 5.1

Noted for `K4N` : its protein stability index reads 4.95

Documented protein stability index of `I7A` : 5.13

The measured protein stability index associated with `E14S` reads 4.23

Note to self: protein stability index recorded for `A22E` was 5.28

For this variant ( `E23G` ), measured protein stability index is 4.1

Value of measured protein stability index for the entry `K10Q` : 4.46

Item: `E5G` | protein stability index: 4.63

The recorded protein stability index for `L6T` is 5.06

For `A15F` the variant record lists protein stability index as 4.45

For `K4C` the variant record lists protein stability index as 4.68

According to the records, this variant `K3V` displays protein stability index of 5.06

// `S13F` : protein stability index value = 3.73

Noted for `I7L` : its protein stability index reads 5.31

In plain terms, `K3N` has a documented protein stability index of 4.58

// sample `D18N` , its protein stability index was 4.04

protein stability index measured on `K16Q` = 4.65

Lab note: measured protein stability index of `N8W` was 3.75

protein stability index in this record for `L21R` : 4.96

The variant `I20R` showed protein stability index equal to 4.75

Reported protein stability index of `L21S` : 5.46

Input `S13D` . Output protein stability index: 5.12

// sample `A15T` , its protein stability index was 5.07

Lab book: protein stability index of `L21E` noted as 4.54

The variant `G11T` showed protein stability index equal to 4.59

// sample `L21C` , its protein stability index was 5.15

protein stability index reported for this variant `K4M` : 4.13

The recorded protein stability index for `A22G` is 4.62

So, `N8D` ? Its protein stability index was 4.88

Record `K19R` , field protein stability index: 4.26

Item: `I7R` | protein stability index: 4.59

// field: protein stability index; key: `K3S` ; value = 4.55

Measured protein stability index of `A24K` : 5.26

Value of protein stability index reported for the variant `K3R` is 4.58

Reported protein stability index of `E14M` : 4.23

Quick note, protein stability index for `A22L` landed at 4.19

Briefly, protein stability index measured for `S13L` : 4.21

Entry under test: `A17G` . Its protein stability index was 4.84

// protein stability index value for `I7Y` : 4.73

Memo: `I20P` , reported protein stability index: 5.5

For record `A1T` the listed protein stability index is 4.41

protein stability index in this record for `E14L` : 3.83

Documented protein stability index of `L21W` : 4.27

The recorded protein stability index for entry `P2V` equals 4.44

Summary for this variant, `K16P` : protein stability index is 4.84

Briefly, protein stability index measured for `K4H` : 4.17

Value of measured protein stability index for the entry `E23T` : 4.13

// protein stability index lookup, variant = `N8F` , result: 3.76

For record `A17V` the listed protein stability index is 4.53

# variant `I12G` ; its protein stability index = 4.69

Entry under test: `K10W` . Its protein stability index was 3.99

Reported protein stability index of `I9D` : 5.19

response.value for `L6D` (field: protein stability index) = 5.45

Lookup result for `I12T` ; measured protein stability index: 5.16

For `A24Y` the variant record lists protein stability index as 3.76

Please fill in: protein stability index reported for `G11L` = 3.69

Given item `N8Y` , the value recorded as its protein stability index is 4.39

Please fill in: protein stability index reported for `A15E` = 5.25

Notebook: `G11R` , protein stability index read as 4.37

// field: protein stability index; key: `K16H` ; value = 4.78

So, `D18K` ? Its protein stability index was 4.78

Lab note: `A17K` gave protein stability index of 4.83

Sample `I7M` ; protein stability index observed: 4.99

Recorded protein stability index (variant `I12M` ): 4.98

Form: variant = `S13C` ; protein stability index = 4.43

Sure, the documented protein stability index for `K19H` is 4.3

Briefly, protein stability index measured for `A22Q` : 5.15

Measured protein stability index of `I12L` : 4.64

The reported protein stability index of the variant `A1C` was 4.73

// recorded protein stability index for `N8T` : 4.01

Consider `E23I` . Its measured protein stability index is 3.36

Given item `A24L` , the value recorded as its protein stability index is 4.4

Measured protein stability index of `E5H` : 4.48

# protein stability index (variant: `I20D` ) is 5.47

GET /value?item= `K16E` &field=protein stability index returns 5.08

Record `K10F` . Reported protein stability index: 3.82

Data point: `I9M` ; protein stability index = 5.06

Memo: `E14C` , reported protein stability index: 3.66

Recorded result, `I7C` , protein stability index: 4.21

Sure, the documented protein stability index for `E23C` is 3.38

Entry `L21K` ; protein stability index = 5.2

The variant `A22S` showed protein stability index equal to 4.61

protein stability index reading for `E5L` : 3.65

Field protein stability index (entry `K10Y` ) reads 3.8

Source of measurements: the supplement of paper PMC10567573
